{"columns": ["SMILES REPR", "melting point"],
 "data": [
  ["CCOC(=O)c1cc(-c2ccc(Br)cc2)n(CC(=O)N/N=C/c2ccc(Cl)cc2)c1C", "229.4 to 231.2 °C"],
  ["CCOC(=O)c1cc(-c2ccc(Br)cc2)n(CCC(=O)N/N=C/c2ccc(Cl)cc2)c1C", "181.4 to 184.6 °C"],
  ["CCOC(=O)c1cc(-c2ccc(Br)cc2)n(CC(=O)N/N=C/c2ccc(OC)cc2OC)c1C", "206 to 207.6 °C"],
  ["CCOC(=O)c1cc(-c2ccc(Br)cc2)n(CCC(=O)N/N=C/c2ccc(OC)cc2OC)c1C", "170 to 171.9 °C"],
  ["CCOC(=O)c1cc(-c2ccc(Br)cc2)n(CCC(=O)N/N=C/c2ccc(N(C)C)cc2)c1C", "212 to 213.3 °C"],
  ["CCOC(=O)c1cc(-c2ccc(Br)cc2)n(CC(=O)N/N=C/c2ccc(N(C)C)cc2)c1C", "211.4 to 213.6 °C"]
]}
